Test: Clearance in Han Wistar rat at 5 umol/kg, iv
Format: ADME, organism-based
Settings: in vivo
Each record here notes measured clearance.

GIVEN SMILES | clearance [mL/min/kg]
CCNCc1cnc(-c2ccc(C(=O)Nc3ccccc3N)cc2)s1 | 38
CN(C)C(=O)c1ccc(CN2CCC(c3ccc(C(=O)Nc4ccccc4N)cc3)CC2)cc1 | 49

====

A set of compounds tested on UniProtKB P33261, with measured IC50:
READOUT KIND: IC50

GIVEN SMILES | MEASURED RESULT
CNC(=O)c1ccc(CN2CCC(c3ccc(C(=O)Nc4ccccc4N)cc3)CC2)cc1 | > 10 µM
Nc1ccccc1NC(=O)c1ccc(C2CCN(CCC(=O)Nc3ccccc3F)CC2)cc1 | 10 µM
CN(C)C(=O)c1ccc(CN2CCC(c3ccc(C(=O)Nc4ccccc4N)cc3)CC2)cc1 | > 10 µM
Nc1ccccc1NC(=O)c1ccc(C2CCN(Cc3ccc(C(=O)NC4CC4)cc3)CC2)cc1 | > 10 µM
